molecular target: FSH receptor (Homo sapiens); test: FSH Receptor Radioligand Membrane Binding Assay ([125I]hFSH, CHO cell membranes); design: expressed in transfected cells; membrane homogenate
Where a name gives a salt, the structure may show the parent alone.
observation_type: IC50

>>> observed_result("COc1ccc(N=Nc2c(S(=O)(=O)O)cc3cc(NC(=O)c4ccccc4)ccc3c2O)cc1")
"79 µM"
>>> observed_result("COc1ccc(N=Nc2c(S(=O)(=O)O)cc3cc(NC(=O)c4ccc(OC)c(OC)c4)ccc3c2O)cc1")
"14 µM"
>>> observed_result("COc1ccc(N=Nc2c(S(=O)(=O)O)cc3cc(NC(=O)c4cc(OC)cc(OC)c4)ccc3c2O)cc1")
"81 µM"
>>> observed_result("COc1ccc(N=Nc2c(S(=O)(=O)O)cc3cc(NC(=O)c4ccc(N(C)C)cc4)ccc3c2O)cc1 [Example 12, Sodium Salt]")
"101 µM"

* * *

biological target: FSH receptor (Homo sapiens, UniProt P23945); experiment: FSH Receptor Radioligand Membrane Binding Assay ([125I]hFSH, CHO cell membranes); set-up: expressed in transfected cells; membrane homogenate; conditions: [125I]hFSH binding, CHO membranes with human FSH receptor
Sequence (P23945 18-695): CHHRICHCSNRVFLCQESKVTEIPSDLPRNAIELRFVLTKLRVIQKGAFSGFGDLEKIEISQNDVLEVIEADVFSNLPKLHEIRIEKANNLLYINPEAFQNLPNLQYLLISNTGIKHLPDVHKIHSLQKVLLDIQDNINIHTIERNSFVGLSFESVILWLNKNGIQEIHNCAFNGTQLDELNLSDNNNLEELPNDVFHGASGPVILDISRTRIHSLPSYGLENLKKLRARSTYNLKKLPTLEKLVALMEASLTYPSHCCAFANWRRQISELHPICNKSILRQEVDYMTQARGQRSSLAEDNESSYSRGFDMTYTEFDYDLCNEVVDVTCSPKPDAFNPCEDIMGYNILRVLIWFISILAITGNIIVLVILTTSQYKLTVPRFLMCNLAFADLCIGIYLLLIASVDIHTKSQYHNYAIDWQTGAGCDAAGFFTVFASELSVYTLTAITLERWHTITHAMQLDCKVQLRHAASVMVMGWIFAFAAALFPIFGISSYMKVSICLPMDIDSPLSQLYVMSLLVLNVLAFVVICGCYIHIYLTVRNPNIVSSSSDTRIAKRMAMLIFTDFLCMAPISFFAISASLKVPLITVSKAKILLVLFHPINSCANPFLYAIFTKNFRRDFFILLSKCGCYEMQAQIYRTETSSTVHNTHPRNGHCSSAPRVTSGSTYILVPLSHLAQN
Where a name gives a salt, the structure may show the parent alone.
observation_type: IC50 (µM)

>>> observed_result("COc1ccc(N=Nc2c(S(=O)(=O)O)cc3cc(Nc4nc(Cl)nc(N(CCO)CCO)n4)ccc3c2O)cc1 [Example 11, Sodium Salt]")
8.6

* * *

molecular target: FSH receptor (Homo sapiens); experiment: FSH Receptor Radioligand Membrane Binding Assay ([125I]hFSH, CHO cell membranes); design: expressed in transfected cells; membrane homogenate; conditions: 100 μM; [125I]hFSH binding, CHO membranes with human FSH receptor; read-out: % Inhibition at 100 μM conc.
Counter-ions that a name gives are not always drawn.
observation_type: inhibition at 100 µM (%)

>>> observed_result("COc1ccc(N=Nc2c(S(=O)(=O)O)cc3cc(NC(=O)c4ccccc4)ccc3c2O)cc1")
76
>>> observed_result("COc1ccc(N=Nc2c(S(=O)(=O)O)cc3cc(Nc4nc(Cl)nc(N(CCO)CCO)n4)ccc3c2O)cc1 [Example 11, Sodium Salt]")
71
>>> observed_result("COc1ccc(N=Nc2c(S(=O)(=O)O)cc3cc(NC(=O)c4c(OC)cccc4OC)ccc3c2O)cc1")
8
>>> observed_result("COc1ccc(N=Nc2c(S(=O)(=O)O)cc3cc(NC(=O)c4cc(OC)cc(OC)c4)ccc3c2O)cc1")
60
>>> observed_result("COc1ccc(N=Nc2c(S(=O)(=O)O)cc3cc(Nc4nc(Cl)nc(N(CCC(N)=O)CCC(N)=O)n4)ccc3c2O)cc1 [Example 9, Sodium Salt]")
94
>>> observed_result("COc1ccc(N=Nc2c(S(=O)(=O)O)cc3cc(NC(=O)c4ccc(OC)c(OC)c4)ccc3c2O)cc1")
100

The measurements presented in this section are drawn from patent US6200963A.
